Known IC50 of a selection of molecules
Target: PI3Kα H1047R (T47D cells) (Homo sapiens, UniProt P42336, H1047R)
Construct: endogenous in cells; host or cells: T47D cells
Sequence (P42336 whole entry H1047R): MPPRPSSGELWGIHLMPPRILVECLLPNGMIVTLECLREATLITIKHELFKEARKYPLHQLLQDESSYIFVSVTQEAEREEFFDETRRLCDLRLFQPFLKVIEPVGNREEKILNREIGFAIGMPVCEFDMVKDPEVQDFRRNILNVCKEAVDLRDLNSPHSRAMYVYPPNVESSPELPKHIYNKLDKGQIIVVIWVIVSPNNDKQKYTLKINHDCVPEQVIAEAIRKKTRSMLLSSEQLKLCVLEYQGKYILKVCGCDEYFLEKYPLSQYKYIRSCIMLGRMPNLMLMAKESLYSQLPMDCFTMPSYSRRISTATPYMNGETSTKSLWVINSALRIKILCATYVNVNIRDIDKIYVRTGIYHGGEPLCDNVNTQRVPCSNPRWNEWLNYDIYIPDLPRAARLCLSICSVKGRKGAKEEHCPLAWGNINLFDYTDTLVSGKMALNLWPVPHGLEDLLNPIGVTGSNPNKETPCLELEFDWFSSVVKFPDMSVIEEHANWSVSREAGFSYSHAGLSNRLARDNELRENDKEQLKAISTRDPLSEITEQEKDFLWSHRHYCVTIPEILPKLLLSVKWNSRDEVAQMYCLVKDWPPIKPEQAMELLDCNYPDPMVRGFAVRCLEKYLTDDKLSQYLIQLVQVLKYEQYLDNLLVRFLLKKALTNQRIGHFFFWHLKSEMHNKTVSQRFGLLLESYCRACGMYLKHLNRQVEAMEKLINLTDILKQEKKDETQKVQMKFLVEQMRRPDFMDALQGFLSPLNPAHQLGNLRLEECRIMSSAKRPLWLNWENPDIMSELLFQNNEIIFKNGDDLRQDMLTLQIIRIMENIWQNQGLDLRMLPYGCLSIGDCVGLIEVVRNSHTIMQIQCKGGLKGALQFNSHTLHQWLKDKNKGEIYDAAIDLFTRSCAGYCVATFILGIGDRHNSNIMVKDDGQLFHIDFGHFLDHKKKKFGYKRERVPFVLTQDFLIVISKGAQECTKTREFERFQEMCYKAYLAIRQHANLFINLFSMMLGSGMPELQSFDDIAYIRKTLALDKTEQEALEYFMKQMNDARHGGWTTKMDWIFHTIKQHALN
Sequence (P27986 whole entry partner): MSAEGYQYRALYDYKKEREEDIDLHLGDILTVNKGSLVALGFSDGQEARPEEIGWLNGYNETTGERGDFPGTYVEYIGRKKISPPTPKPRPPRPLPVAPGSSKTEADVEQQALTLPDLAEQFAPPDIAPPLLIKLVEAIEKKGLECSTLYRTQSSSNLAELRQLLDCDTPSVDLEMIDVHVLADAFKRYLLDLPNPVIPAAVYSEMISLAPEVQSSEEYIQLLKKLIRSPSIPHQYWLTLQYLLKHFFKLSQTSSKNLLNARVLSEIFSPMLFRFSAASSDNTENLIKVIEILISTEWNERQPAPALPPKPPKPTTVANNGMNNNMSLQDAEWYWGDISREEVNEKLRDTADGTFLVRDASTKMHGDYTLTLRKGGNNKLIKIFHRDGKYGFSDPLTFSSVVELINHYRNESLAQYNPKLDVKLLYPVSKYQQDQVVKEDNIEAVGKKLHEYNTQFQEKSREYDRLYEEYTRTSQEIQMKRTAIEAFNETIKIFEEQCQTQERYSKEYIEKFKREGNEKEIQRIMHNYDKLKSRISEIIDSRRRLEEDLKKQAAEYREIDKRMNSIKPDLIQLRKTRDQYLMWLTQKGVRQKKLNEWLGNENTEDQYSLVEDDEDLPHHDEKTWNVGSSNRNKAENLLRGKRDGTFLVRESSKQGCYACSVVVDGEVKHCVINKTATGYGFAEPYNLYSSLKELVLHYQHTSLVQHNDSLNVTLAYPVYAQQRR
Experiment: PI3Kα cellular assay: pAKT HTRF in T47D cells after EGF stimulation
Assay type: cell-based
Conditions: T47D cells (PI3Kα H1047R), pAKT S473 HTRF, 1 hr compound, 20 ng/ml EGF 10 min
Description: SKBR3 or T47D cells are seeded in DMEM containing 10% FBS at 25k cells/well into 96-well cell culture format. […] 384 well plate is left overnight at room temperature before reading HTRF on an Envision plate reader. ND denotes value not determined with that assay for the specified compound; • for T47D (H1047R) selectivity over SKBR3 (WT): A denotes >20-fold; B denotes 20-fold≥value>5-fold; C denotes ≤5-fold. […] ND denotes value not determined with that assay for the specified compound.

                                   molecule  assay_result
0  Cc1cc(C(C)Nc2ccccc2C(=O)O)c2nc(-c3ccncc3)cc(=O)n2c1 (single isomer, unassigned) [Compound 269]      < 100 nM

Value lookup for IC50; key = Cc1cc(C(C)Nc2ccccc2C(=O)O)c2nc(-c3cnc(N)nc3)cc(=O)n2c1 (stereo not shown)
500 to 2000 nM

Query (molecule): Cc1cc([C@@H](C)Nc2ccccc2C(=O)O)c2nc(-c3cc(C)c4[nH]c(=O)[nH]c4c3)cc(=O)n2c1 ; field requested: IC50
500 to 2000 nM

Could you tell me which IC50 is on file for Cc1cc([C@H](C)Nc2ccccc2C(=O)O)c2nc(N3C[C@H](C)C[C@H](C)C3)cc(=O)n2c1 ?
> 2000 nM

Please report the recorded IC50 for CCN1CCN(Cc2ccccc2-c2cc(=O)n3cc(C)cc(C(C)Nc4ccccc4C(=O)O)c3n2)CC1 (stereo not shown) .
> 2000 nM

Need IC50 of Cc1cc(C(C)Nc2ccccc2C(=O)O)c2nc(-c3ccnnc3)cc(=O)n2c1 (stereo not shown) , thanks.
500 to 2000 nM

Form field: reported IC50 of Cc1cc(C(C)Nc2c(C(=O)O)cnn2C)c2nc(N3CCOCC3)cc(=O)n2c1 (stereo not shown)
> 2000 nM
